We begin with a simple list: items and their reported scaled log2 fold change.
B1: library; numbered along this chain (parent)
chain: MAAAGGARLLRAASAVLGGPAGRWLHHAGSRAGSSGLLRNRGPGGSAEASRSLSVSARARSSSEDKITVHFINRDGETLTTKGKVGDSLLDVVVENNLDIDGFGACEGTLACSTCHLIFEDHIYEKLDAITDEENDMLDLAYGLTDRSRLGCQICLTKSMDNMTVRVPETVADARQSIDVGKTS

Variants of: B1
protocol_summary: scaled log2 fold change in cell abundance, elesclomol vs control (0 = silent mean, 1 = nonsense mean) (scaled log2 ratio); higher = higher viability under elesclomol (loss of FDX1 cuproptosis function);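 further: variant abundance is its share of total variant reads in each endpoint sample, from next-generation sequencing of the integrated ORF PCR-amplified out of genomic DNA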
run_conditions: with HEK293T FDX1 KO; elesclomol 40 nM; glucose 10 mM; 11 days

# mutation_code, scaled log2 fold change
rows = [
    ("D173Y", -0.0391),
    ("S62I", -0.0402),
    ("G36N", 0.187),
    ("K182W", 0.909),
    ("S113H", -0.884),
    ("K126F", 0.517),
    ("Y124V", -0.724),
    ("S184Q", -0.0365),
    ("A7H", 0.0712),
    ("A105E", -0.502),
    ("G104C", 1.19),
    ("P20L", -0.772),
    ("A141V", 0.0536),
    ("T81S", 1.14),
    ("A59T", -0.0311),
    ("D91E", 1.04),
    ("N97G", -0.242),
    ("D87I", -0.421),
    ("T164V", 1.31),
    ("L98G", 0.327),
    ("G83E", 0.975),
    ("M163N", 0.528),
    ("K84S", 0.32),
    ("F103C", 0.536),
    ("A15D", 0.431),
    ("A49M", -1.02),
    ("V165K", 1.01),
    ("T114K", 0.199),
    ("K66P", -0.254),
    ("N135Y", 0.75),
    ("G86I", 0.0646),
    ("L79V", 1.39),
    ("D136R", 1.08),
    ("A28D", -0.109),
    ("S63E", -0.451),
    ("T81V", -0.0523),
    ("L10V", -0.208),
    ("N162H", 0.208),
    ("A129S", -0.075),
    ("N73C", -0.308),
    ("G44W", 0.857),
    ("E107W", -0.686),
    ("G45C", -0.145),
    ("I123N", -0.142),
    ("K126T", -0.395),
    ("S52R", -1.18),
    ("E134T", 0.834),
    ("E120M", 0.0763),
    ("N40F", 0.266),
    ("G29N", 1.01),
    ("L98P", 0.205),
    ("T80I", 0.056),
    ("K66N", 0.199),
    ("G83P", -0.345),
    ("T145V", -0.443),
    ("D179P", 0.0267),
    ("L38C", 0.0841),
    ("A21T", -0.058),
    ("V16D", -0.0447),
    ("V93Q", -0.698),
    ("S148H", -0.35),
    ("C106Q", 1.99),
    ("E125N", -0.574),
    ("G42E", 0.67),
    ("C106N", 0.906),
    ("A49N", -0.853),
    ("D101F", 0.0209),
    ("D65S", 0.216),
    ("A105L", 0.791),
    ("A174I", 0.249),
    ("Q153Y", 0.0427),
]
